Recorded values, source patent US11905279B1.

Molecular target: human COX-1 (Homo sapiens, UniProt P23219)
Construct: purchased
Sequence (P23219 24-599): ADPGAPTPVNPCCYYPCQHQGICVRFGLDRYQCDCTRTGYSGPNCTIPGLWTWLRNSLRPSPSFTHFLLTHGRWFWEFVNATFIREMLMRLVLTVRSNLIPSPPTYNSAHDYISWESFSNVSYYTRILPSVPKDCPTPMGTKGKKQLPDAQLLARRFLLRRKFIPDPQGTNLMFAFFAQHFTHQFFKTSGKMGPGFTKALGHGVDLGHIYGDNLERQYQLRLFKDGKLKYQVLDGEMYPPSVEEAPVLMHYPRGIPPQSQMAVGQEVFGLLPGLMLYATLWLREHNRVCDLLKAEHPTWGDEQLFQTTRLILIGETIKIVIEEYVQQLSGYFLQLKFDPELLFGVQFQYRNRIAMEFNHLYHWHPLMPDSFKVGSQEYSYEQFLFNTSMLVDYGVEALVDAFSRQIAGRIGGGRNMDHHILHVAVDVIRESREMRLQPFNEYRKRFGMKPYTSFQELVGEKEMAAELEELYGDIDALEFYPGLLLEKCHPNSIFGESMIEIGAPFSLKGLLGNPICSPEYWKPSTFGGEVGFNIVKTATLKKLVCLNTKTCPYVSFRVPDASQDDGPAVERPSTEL
Test: Cyclooxygenase (COX-1) enzyme inhibition assay, COX (human) Inhibitor Screening Assay Kit
Assay type: biochemical
Conditions: compound at 10 μM; in vitro, human COX-1 isoenzyme; ELISA incubation 18 hours; read-out: % Inhibition( COX1) Mean ± SEM
inhibition at 10 µM vs 30%: at or above is T, below is F.

# molecule, test-target, class-label
records = [
    ("CN1/C(=C\\c2ccc(Br)o2)C(=O)N/C1=N\\C(=O)Nc1ccc(F)cc1 [Compound 5k]", "human COX-1 (Homo sapiens, UniProt P23219)", "F"),
    ("CN1/C(=C\\c2ccc(Br)o2)C(=O)N/C1=N\\C(=O)Nc1ccccc1F [Compound 5c]", "human COX-1 (Homo sapiens, UniProt P23219)", "F"),
    ("CN1/C(=C\\c2ccc(-c3ccccc3[N+](=O)[O-])o2)C(=O)N/C1=N\\C(=O)Nc1cccc(F)c1 [Compound 5h]", "human COX-1 (Homo sapiens, UniProt P23219)", "T"),
    ("CN1/C(=C\\c2ccc(-c3ccccc3[N+](=O)[O-])o2)C(=O)N/C1=N\\C(=S)Nc1cccc(Cl)c1 [Compound 6d]", "human COX-1 (Homo sapiens, UniProt P23219)", "F"),
    ("CN1/C(=C\\c2ccc(-c3ccccc3[N+](=O)[O-])o2)C(=O)N/C1=N\\C(=O)Nc1ccccc1F [Compound 5d]", "human COX-1 (Homo sapiens, UniProt P23219)", "T"),
    ("CN1/C(=C\\c2ccc([N+](=O)[O-])cc2)C(=O)N/C1=N\\C(=O)Nc1ccc(Cl)cc1Cl [Compound 5m]", "human COX-1 (Homo sapiens, UniProt P23219)", "F"),
    ("CN1/C(=C\\c2ccc(-c3ccccc3[N+](=O)[O-])o2)C(=O)N/C1=N\\C(=O)Nc1ccc(F)cc1 [Compound 5l]", "human COX-1 (Homo sapiens, UniProt P23219)", "T"),
]
